Data origin: patent US9056840B2

assay: Fluorescence spectra of coelenteramide analogue alone (absence of apoaequorin); assay type: physicochemical; conditions: analogue alone 8 μg/ml, 10 mM CaCl2 buffer pH 7.6, excitation 337 nm
endpoint.label: Coelenteramide (Buffer containing CaCl2) Fluorescence intensity (rlu)

{"molecule.smiles": "O=C(Cc1ccc(O)cc1)Nc1ncc(-c2ccc(O)cc2)nc1-c1csc2ccccc12", "result.unit": "rlu", "result.value": 11.8}
{"molecule.smiles": "O=C(Cc1ccc(O)cc1)Nc1ncc(-c2ccc(O)cc2)nc1-c1cccc2ccccc12", "result.unit": "rlu", "result.value": 12.9}
{"molecule.smiles": "O=C(Nc1ncc(-c2ccc(O)cc2)nc1Cc1ccccc1)c1ccc(O)cc1", "result.unit": "rlu", "result.value": 1.4}
{"molecule.smiles": "O=C(Cc1ccc(O)cc1)Nc1ncc(-c2ccc(O)cc2)nc1-c1cc2sc3ccsc3c2s1", "result.unit": "rlu", "result.value": 8.8}
{"molecule.smiles": "O=C(Cc1ccc(O)cc1)Nc1ncc(-c2ccc(O)cc2)nc1-c1ccccc1", "result.unit": "rlu", "result.value": 2.0}
{"molecule.smiles": "O=C(Cc1ccc(O)cc1)Nc1ncc(-c2ccc(O)cc2)nc1C#Cc1ccccc1", "result.unit": "rlu", "result.value": 5.4}
{"molecule.smiles": "O=C(Cc1ccc(O)cc1)Nc1ncc(-c2ccc(O)cc2)nc1-c1ccc(O)cc1", "result.unit": "rlu", "result.value": 22.4}
{"molecule.smiles": "O=C(Cc1ccc(O)cc1)Nc1cnc(-c2ccc(O)cc2)cn1", "result.unit": "rlu", "result.value": 2.0}
{"molecule.smiles": "O=C(Nc1ccc(O)cc1)Nc1ncc(-c2ccc(O)cc2)nc1Cc1ccccc1", "result.unit": "rlu", "result.value": 0.9}
{"molecule.smiles": "O=C(Cc1ccc(O)cc1)Nc1ncc(-c2ccc(O)cc2)nc1-c1cc2sccc2s1", "result.unit": "rlu", "result.value": 9.7}
{"molecule.smiles": "O=C(Cc1ccc(O)cc1)Nc1ncc(-c2ccc(O)cc2)nc1-c1ccc([N+](=O)[O-])cc1", "result.unit": "rlu", "result.value": 2.1}
{"molecule.smiles": "O=C(Nc1ncc(-c2ccc(O)cc2)nc1Cc1ccccc1)c1cccc(O)c1", "result.unit": "rlu", "result.value": 1.4}
{"molecule.smiles": "O=C(Cc1ccc(O)cc1)Nc1ncc(-c2ccc(O)cc2)nc1-c1ccsc1", "result.unit": "rlu", "result.value": 6.1}
{"molecule.smiles": "O=C(Cc1ccc(O)cc1)Nc1ncc(-c2ccc(O)cc2)nc1-c1cc2ccccc2s1", "result.unit": "rlu", "result.value": 101.2}
{"molecule.smiles": "O=C(Cc1ccc(O)cc1)Nc1ncc(-c2ccc(O)cc2)nc1/C=C/c1ccccc1", "result.unit": "rlu", "result.value": 9.4}
{"molecule.smiles": "O=C(Cc1ccc(O)cc1)Nc1ncc(-c2ccc(O)cc2)nc1-c1cccs1", "result.unit": "rlu", "result.value": 2.2}
{"molecule.smiles": "Oc1ccc(NC(=S)Nc2ncc(-c3ccc(O)cc3)nc2Cc2ccccc2)cc1", "result.unit": "rlu", "result.value": 1.4}

* * *

assay: Fluorescence spectra of coelenteramide analogue alone (absence of apoaequorin); assay type: physicochemical; details: analogue alone 8 μg/ml, 10 mM EDTA buffer pH 7.6, excitation 337 nm
Form field: Coelenteramide (EDTA-containing buffer) Maximum fluorescence wavelength λmax (nm) (one value per entry).
endpoint.label: Coelenteramide (EDTA-containing buffer) Maximum fluorescence wavelength λmax (nm)

{"compound": "O=C(Cc1ccc(O)cc1)Nc1ncc(-c2ccc(O)cc2)nc1Br [Compound 4t]", "result.value": 480.5}
{"compound": "O=C(Cc1ccc(O)cc1)Nc1ncc(-c2ccc(O)cc2)nc1-c1ccc([N+](=O)[O-])cc1 [Compound 4o]", "result.value": 482.5}
{"compound": "O=C(Cc1ccc(O)cc1)Nc1cnc(-c2ccc(O)cc2)cn1 [Compound 4s]", "result.value": 457.5}
{"compound": "O=C(Cc1ccc(O)cc1)Nc1ncc(-c2ccc(O)cc2)nc1-c1cc2sc3ccsc3c2s1 [Compound 4l]", "result.value": 523.5}

* * *

test: Fluorescence spectra of coelenteramide analogue alone (absence of apoaequorin); format: physicochemical; conditions: analogue alone 8 μg/ml, 10 mM EDTA buffer pH 7.6, excitation 337 nm
Label true when Coelenteramide (EDTA-containing buffer) Fluorescence intensity (rlu) is strictly below 5 rlu; at or above that, label false.

{"compound": "O=C(Cc1ccc(O)cc1)Nc1ncc(-c2ccc(O)cc2)nc1-c1cccs1", "group.label": "true"}
{"compound": "O=C(Cc1ccc(O)cc1)Nc1ncc(-c2ccc(O)cc2)nc1-c1ccsc1", "group.label": "false"}
{"compound": "O=C(Nc1ncc(-c2ccc(O)cc2)nc1Cc1ccccc1)c1cccc(O)c1", "group.label": "true"}
{"compound": "O=C(Cc1ccc(O)cc1)Nc1ncc(-c2ccc(O)cc2)nc1-c1cc2ccccc2s1", "group.label": "false"}
{"compound": "O=C(Nc1ncc(-c2ccc(O)cc2)nc1Cc1ccccc1)c1ccc(O)cc1", "group.label": "true"}
{"compound": "C=C(c1ccccc1)c1nc(-c2ccc(O)cc2)cnc1NC(=O)Cc1ccc(O)cc1", "group.label": "false"}
{"compound": "O=C(Nc1ccc(O)cc1)Nc1ncc(-c2ccc(O)cc2)nc1Cc1ccccc1", "group.label": "true"}
{"compound": "O=C(Cc1ccc(O)cc1)Nc1ncc(-c2ccc(O)cc2)nc1Br", "group.label": "false"}
{"compound": "O=C(Cc1ccc(O)cc1)Nc1ncc(-c2ccc(O)cc2)nc1-c1csc2ccccc12", "group.label": "false"}
{"compound": "O=C(Cc1ccc(O)cc1)Nc1ncc(-c2ccc(O)cc2)nc1-c1cc2sc3ccsc3c2s1", "group.label": "false"}
{"compound": "O=C(Cc1ccc(O)cc1)Nc1ncc(-c2ccc(O)cc2)nc1-c1ccc([N+](=O)[O-])cc1", "group.label": "true"}
{"compound": "O=C(Cc1ccc(O)cc1)Nc1ncc(-c2ccc(O)cc2)nc1C#Cc1ccccc1", "group.label": "false"}
{"compound": "O=C(Cc1ccc(O)cc1)Nc1ncc(-c2ccc(O)cc2)nc1Cc1ccccc1 [Coelenteramide]", "group.label": "true"}
{"compound": "O=C(Cc1ccc(O)cc1)Nc1ncc(-c2ccc(O)cc2)nc1CCc1ccccc1", "group.label": "false"}
{"compound": "O=C(Cc1ccc(O)cc1)Nc1cnc(-c2ccc(O)cc2)cn1", "group.label": "true"}
{"compound": "O=C(Cc1ccc(O)cc1)Nc1ncc(-c2ccc(O)cc2)nc1-c1ccc2ccccc2c1", "group.label": "false"}
{"compound": "CC(C(=O)Nc1ncc(-c2ccc(O)cc2)nc1Cc1ccccc1)c1ccc(O)cc1 (stereo not drawn)", "group.label": "true"}
{"compound": "O=C(Cc1ccc(O)cc1)Nc1ncc(-c2ccc(O)cc2)nc1-c1cc2sccc2s1", "group.label": "false"}
{"compound": "Oc1ccc(NC(=S)Nc2ncc(-c3ccc(O)cc3)nc2Cc2ccccc2)cc1", "group.label": "true"}
{"compound": "O=C(Cc1ccc(O)cc1)Nc1ncc(-c2ccc(O)cc2)nc1-c1ccc(O)cc1", "group.label": "false"}
{"compound": "O=C(Cc1ccc(O)cc1)Nc1ncc(-c2ccc(O)cc2)nc1-c1cccc2ccccc12", "group.label": "false"}
{"compound": "O=C(Nc1ncc(-c2ccc(O)cc2)nc1Cc1ccccc1)c1cccc2cc(O)ccc12", "group.label": "false"}
{"compound": "O=C(Cc1ccc(O)cc1)Nc1ncc(-c2ccc(O)cc2)nc1-c1ccccc1", "group.label": "true"}
{"compound": "O=C(Cc1ccc(O)cc1)Nc1ncc(-c2ccc(O)cc2)nc1/C=C/c1ccccc1", "group.label": "false"}

* * *

target: apoaequorin (Aequorea victoria, UniProt P07164); construct: purchased Chisso Corporation; assay: Fluorescence spectra of fluorescent proteins formed from semi-synthetic aequorins by Ca2+; type: physicochemical; details: fluorescent protein generated by calcium from semi-synthetic aequorin; excitation 330 nm, 25° C.
Sequence (P07164 other isoform, or with tags, fused parts or gaps with the stated changes): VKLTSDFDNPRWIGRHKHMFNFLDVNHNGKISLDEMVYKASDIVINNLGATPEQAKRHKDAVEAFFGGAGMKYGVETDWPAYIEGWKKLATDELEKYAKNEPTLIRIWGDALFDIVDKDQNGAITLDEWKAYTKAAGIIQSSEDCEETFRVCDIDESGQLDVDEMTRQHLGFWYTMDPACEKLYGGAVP
Could you label it condition met if measured Relative fluorescence intensity (rlu) is 40 rlu or higher, and condition not met otherwise?

{"molecule.smiles": "O=c1c(Cc2ccc(O)cc2)nc2c(-c3ccc4ccccc4c3)[nH]c(-c3ccc(O)cc3)cn1-2", "group.label": "condition not met"}
{"molecule.smiles": "O=c1c(Cc2ccc(O)cc2)nc2c(-c3cc4ccccc4s3)[nH]c(-c3ccc(O)cc3)cn1-2", "group.label": "condition met"}
{"molecule.smiles": "O=c1c(Cc2ccc(O)cc2)nc2c(-c3cccc4ccccc34)[nH]c(-c3ccc(O)cc3)cn1-2", "group.label": "condition met"}
{"molecule.smiles": "O=c1c(Cc2ccc(O)cc2)nc2c(-c3ccccc3)[nH]c(-c3ccc(O)cc3)cn1-2", "group.label": "condition met"}
{"molecule.smiles": "Oc1ccc(Cc2nc3c(Cc4ccccc4)nc(-c4ccc(O)cc4)cn3c2O)cc1", "group.label": "condition met"}
{"molecule.smiles": "O=c1c(Cc2ccc(O)cc2)nc2c(-c3cccs3)[nH]c(-c3ccc(O)cc3)cn1-2", "group.label": "condition not met"}
{"molecule.smiles": "O=c1c(Cc2ccc(O)cc2)nc2c(-c3ccc(O)cc3)[nH]c(-c3ccc(O)cc3)cn1-2", "group.label": "condition not met"}
{"molecule.smiles": "O=c1c(Cc2ccc(O)cc2)nc2c(/C=C/c3ccccc3)[nH]c(-c3ccc(O)cc3)cn1-2", "group.label": "condition not met"}
